Assay: ATG_AP_1_CIS: Attagene CIS-FACTORIAL HepG2 Assay for human Activator Protein 1 (AP-1) (AID 2282931)
Conditions: HepG2 Attagene cis-factorial AP-1 reporter mRNA; actives raise or lower the signal
Active and inactive are the calls of the source. The calls were made as follows: active = hit-call score of the fitted dose curve at least 0.9, where 1 is the maximum; inactive = score below 0.9.
Assign a class; possible classes are active, inactive

Data request: What was the test verdict on CCOP(=S)(OCC)OC(Cl)C(Cl)(Cl)Cl (stereo not given) ?
Data returned: inactive

Data request: What was the test verdict on CCc1cccc(C)c1N(C(=O)CCl)C(C)COC (stereo not given) ?
Data returned: active

Data request: What was the test verdict on `COc1cccc(C(=O)NN(C(=O)c2cc(C)cc(C)c2)C(C)(C)C)c1C` ?
Data returned: inactive

Data request: What was the test verdict on `O=c1ccc(=O)[nH][nH]1` ?
Data returned: inactive

Data request: What was the test verdict on CCOP(=O)(NC(C)C)Oc1ccc(SC)c(C)c1 (stereo not given) ?
Data returned: inactive

Data request: What was the test verdict on `CSc1nc(NC(C)C)nc(NC(C)C)n1` ?
Data returned: inactive

Data request: What was the test verdict on `C[Si](Cn1cncn1)(c1ccc(F)cc1)c1ccc(F)cc1` ?
Data returned: active

Data request: What was the test verdict on CCC(=NOC/C=C/Cl)C1=C(O)CC(C2CCOCC2)CC1=O (stereo not given) ?
Data returned: inactive

Data request: What was the test verdict on `Cc1cc(C2CC2)nc(Nc2ccccc2)n1` ?
Data returned: active

Data request: What was the test verdict on CCc1cnc(C2=NC(C)(C(C)C)C(=O)N2)c(C(=O)O)c1 (stereo not given) ?
Data returned: inactive

Data request: What was the test verdict on `COc1cc(OC)nc(Sc2cccc(Cl)c2C(=O)O)n1` ?
Data returned: inactive

Data request: What was the test verdict on `CNC(=O)ON=C(C)SC` ?
Data returned: inactive

Data request: What was the test verdict on `CC1=NNC(=O)N(/N=C/c2cccnc2)C1` ?
Data returned: inactive

Data request: What was the test verdict on `Nc1nc(N)nc(NC2CC2)n1` ?
Data returned: inactive

Data request: What was the test verdict on `S=C1NCCN1` ?
Data returned: inactive

====

Assay: BSK_3C_uPAR: BioMAP Diversity Plus: 3C Assay for Urokinase-type plasminogen activator receptor (uPAR) Biomarker Activity (AID 2282998)
Details: BioMAP 3C HUVEC, uPAR biomarker ELISA; actives raise or lower the signal
The source made the active and inactive calls. The calls were made as follows: active = hit-call score of the fitted dose curve at least 0.9, where 1 is the maximum; inactive = score below 0.9.
READOUT_KIND: AC50

Example entries and their recorded answers appear below.
>  <MOLECULE>
COc1cc(OC)nc(Sc2cccc(Cl)c2C(=O)O)n1

>  <AC50>
inactive

$$$$
>  <MOLECULE>
S=C1NCCN1

>  <AC50>
inactive

$$$$
>  <MOLECULE>
C=C(C)[C@H]1Cc2c(ccc3c2O[C@@H]2COc4cc(OC)c(OC)cc4[C@@H]2C3=O)O1

>  <AC50>
7.25 µM (active)

$$$$
>  <MOLECULE>
CC1=NNC(=O)N(/N=C/c2cccnc2)C1

>  <AC50>
inactive

$$$$
>  <MOLECULE>
CCc1cnc(C2=NC(C)(C(C)C)C(=O)N2)c(C(=O)O)c1 (stereo not drawn)

>  <AC50>
inactive

$$$$
>  <MOLECULE>
CN(C)NC(=O)CCC(=O)O

>  <AC50>
inactive

$$$$
>  <MOLECULE>
COP(=O)(OC)OC(Br)C(Cl)(Cl)Br (stereo not drawn)

>  <AC50>
31.7 µM (active)

$$$$
>  <MOLECULE>
C[N+]1(C)CCCCC1

>  <AC50>
inactive

$$$$

Data request: Recorded AC50 for `CCCOCC(=Nc1ccc(Cl)cc1C(F)(F)F)n1ccnc1` , please?
Data returned: 31.7 µM (active)

Data request: Recorded AC50 for `Cc1ccn2nc(S(=O)(=O)Nc3c(F)cccc3F)nc2n1` , please?
Data returned: inactive

Data request: Recorded AC50 for `CC[C@H](C)[C@H]1O[C@]2(C=C[C@@H]1C)C[C@@H]1C[C@@H](C/C=C(\C)[C@@H](O[C@H]3C[C@H](OC)[C@@H](O[C@H]4C[C@H](OC)[C@@H](NC)[C@H](C)O4)[C@H](C)O3)[C@@H](C)/C=C/C=C3\CO[C@@H]4[C@H](O)C(C)=C[C@@H](C(=O)O1)[C@]34O)O2` , please?
Data returned: 1.93 µM (active)

Data request: Recorded AC50 for CCOP(=S)(OCC)OC(Cl)C(Cl)(Cl)Cl (stereo not drawn) , please?
Data returned: inactive

Data request: Recorded AC50 for `CCNc1nc(Cl)nc(NC(C)(C)C#N)n1` , please?
Data returned: inactive
